- Assay explanation: cells
- Measurement setup: Homo sapiens, HCT-116, 72 h
// returns rule not met unless IC50 is strictly below 2 µM, in which case rule met

Compound	Class label
O=C(/C=C/c1ccccc1)c1c(O)ccc2c1SCO2	rule not met
COc1cc2c(cc1C(=O)/C=C/c1ccc(Br)cc1)SCO2	rule not met
O=C(/C=C/c1ccccc1Cl)c1c(O)ccc2c1SCO2	rule met
COc1cc2c(cc1C(=O)/C=C/c1ccc(O)cc1)SCO2	rule not met
O=C(/C=C/c1ccc(Br)cc1)c1c(O)ccc2c1SCO2	rule not met
COc1ccc(/C=C/C(=O)c2c(O)ccc3c2SCO3)cc1	rule not met
COc1cc2c(cc1C(=O)/C=C/c1ccccc1)SCO2	rule not met
CN(C)CCOc1ccc(/C=C/C(=O)c2c(O)ccc3c2SCO3)cc1	rule met
COc1cc2c(cc1C(=O)/C=C/c1ccc(Cl)cc1)SCO2	rule not met
COc1cc(OC)c(/C=C/C(=O)c2cc3c(cc2OC)OCS3)c(OC)c1	rule met
COc1cc(/C=C/C(=O)c2cc3c(cc2OCC(=O)O)OCS3)cc(OC)c1OC	rule not met
COc1cc2c(cc1C(=O)/C=C/c1cccc(Cl)c1)SCO2	rule met
CC(=O)O[C@H]1C(=O)[C@@]2(C)[C@H]([C@H](OC(=O)c3ccccc3)[C@]3(O)C[C@H](OC(=O)[C@H](O)[C@@H](NC(=O)c4ccccc4)c4ccccc4)C(C)=C1C3(C)C)[C@]1(OC(C)=O)CO[C@@H]1C[C@@H]2O [PACLITAXEL]	rule met
COc1ccc(/C=C/C(=O)c2cc3c(cc2OC)OCS3)cc1OC	rule met
COc1cc(/C=C/C(=O)c2cc3c(cc2OCCN2CCOCC2)OCS3)cc(OC)c1OC	rule met
COc1ccc(OC)c(/C=C/C(=O)c2cc3c(cc2OCCN2CCOCC2)OCS3)c1	rule met
COc1ccc(/C=C/C(=O)c2c(O)ccc3c2SCO3)cc1F	rule not met
COc1ccc(/C=C/C(=O)c2cc3c(cc2OC)OCS3)cc1	rule met
COc1ccc(/C=C/C(=O)c2cc3c(cc2OCC(=O)O)OCS3)cc1	rule not met
CCCOc1cc2c(cc1C(=O)/C=C/c1ccc(OC)c(O)c1)SCO2	rule met
O=C(/C=C/c1cccc(Cl)c1)c1c(O)ccc2c1SCO2	rule met
COc1ccc(/C=C\c2cc(OC)c(OC)c(OC)c2)cc1O [COMBRETASTATIN A4]	rule met
COc1cc2c(cc1C(=O)/C=C/c1cccc(OC)c1OC)SCO2	rule not met
COc1ccc(/C=C/C(=O)c2cc3c(cc2OCCN2CCOCC2)OCS3)cc1F	rule met
COc1cc2c(cc1C(=O)/C=C/c1ccc(CCN(C)C)cc1)SCO2	rule not met
O=C(/C=C/c1ccc(Cl)cc1Cl)c1cc2c(cc1OCCN1CCOCC1)OCS2	rule met
COc1cc(OC)c(/C=C/C(=O)c2cc3c(cc2OCC(=O)O)OCS3)c(OC)c1	rule not met
COc1cc2c(cc1C(=O)/C=C/c1ccc(OCC(=O)O)cc1)SCO2	rule not met
COc1cc2c(cc1C(=O)/C=C/c1cc(Br)c(OC)c(OC)c1)SCO2	rule not met
COc1cccc2c1C(=O)c1c(O)c3c(c(O)c1C2=O)C[C@@](O)(C(=O)CO)C[C@@H]3O[C@H]1C[C@H](N)[C@H](O)[C@H](C)O1 [DOXORUBICIN]	rule met
COc1ccc(/C=C/C(=O)c2cc3c(cc2OC)OCS3)cc1F	rule met
COc1ccc(/C=C/C(=O)c2cc3c(cc2OCCN2CCOCC2)OCS3)cc1OC	rule not met
COc1cc2c(cc1C(=O)/C=C/c1cc(OC)c(OC)c(OC)c1)SCO2	rule not met
COc1ccc(/C=C/C(=O)c2c(O)ccc3c2SCO3)cc1OC	rule not met

* * *

pIC50 values for the compounds below.
- Measured on: Tubulin
- Assay explanation: Inhibition of tubulin (unknown origin) polymerization after 1 hr by multiplate reader method
- Format: protein-complex assay, Homo sapiens
pIC50: −log10 of the molar value.
Assay metric: pIC50

                                       mol  assay_metric  observed_result
0  COc1ccc(/C=C/C(=O)c2cc3c(cc2OC)OCS3)cc1         pIC50             5.24
1  COc1ccc(/C=C/C(=O)c2cc3c(cc2OC)SCO3)cc1         pIC50             5.38

* * *

- Tested on: A549
- Assay explanation: cells
- Measurement setup: Homo sapiens, A549, 72 h
- Description: Cytotoxicity against human A549 cells after 72 hrs by MTT assay
pIC50: −log10 of the molar value.
Assay metric: pIC50

                                        mol  observed_result
0    O=C(/C=C/c1ccc(Br)cc1)c1c(O)ccc2c1SCO2             5.41
1       COc1cc2c(cc1C(=O)/C=C/c1ccccc1)SCO2             5.39
2   COc1ccc(/C=C/C(=O)c2c(O)ccc3c2SCO3)cc1F             5.03
3  CCCOc1cc2c(cc1C(=O)/C=C/c1ccc(OC)c(O)c1)SCO2             7.92
4   COc1cc2c(cc1C(=O)/C=C/c1cccc(Cl)c1)SCO2             5.69
5  CCCOc1cc2c(cc1C(=O)/C=C/c1ccc(OC)c(O)c1)OCS2             8.05
6  COc1ccc(/C=C/C(=O)c2cc3c(cc2OC)SCO3)cc1O             7.66

* * *

- Test system: HeLa
- Assay explanation: cells
- Measurement setup: Homo sapiens, 72 h
- Description: Cytotoxicity against human HeLa cells after 72 hrs by MTT assay
pIC50: −log10 of the molar value.
Assay metric: pIC50

>>> df
                                         mol  observed_result
 0        O=C(/C=C/c1ccccc1)c1c(O)ccc2c1SCO2             5.56
 1  COc1ccc(/C=C/C(=O)c2cc3c(cc2OC)OCS3)cc1F             6.95
 2      O=C(/C=C/c1ccccc1Cl)c1c(O)ccc2c1SCO2             5.51
 3  COc1ccc(/C=C/C(=O)c2c(O)ccc3c2SCO3)cc1OC             5.34
 4  CCCOc1cc2c(cc1C(=O)/C=C/c1ccc(OC)c(O)c1)SCO2             8.30
 5  COc1cc(/C=C/C(=O)c2cc3c(cc2OCCN2CCOCC2)OCS3)cc(OC)c1OC             5.63
 6  CN(C)CCOc1ccc(/C=C/C(=O)c2c(O)ccc3c2SCO3)cc1             5.82
 7    COc1ccc(/C=C/C(=O)c2c(O)ccc3c2SCO3)cc1             5.11
 8   COc1cc2c(cc1C(=O)/C=C/c1cccc(Cl)c1)SCO2             5.84
 9  COc1ccc(/C=C/C(=O)c2cc3c(cc2OC)OCS3)cc1OC             6.25
10    O=C(/C=C/c1ccc(Br)cc1)c1c(O)ccc2c1SCO2             5.58
11    COc1ccc(/C=C\c2cc(OC)c(OC)c(OC)c2)cc1O             8.52

* * *

- System: A549
- Assay explanation: cells
- Measurement setup: Homo sapiens, A549, 72 h
pIC50: −log10 of the molar value.
Outcome: t for pIC50 of at least 6; f for anything lower.

>>> df
                                    compound  class_label
 0  COc1ccc(OC)c(/C=C/C(=O)c2cc3c(cc2OCCN2CCOCC2)OCS3)c1            f
 1  COc1cccc2c1C(=O)c1c(O)c3c(c(O)c1C2=O)C[C@@](O)(C(=O)CO)C[C@@H]3O[C@H]1C[C@H](N)[C@H](O)[C@H](C)O1 [DOXORUBICIN]            t
 2  COc1ccc(/C=C/C(=O)c2cc3c(cc2OCC(=O)O)OCS3)cc1            f
 3  COc1cc(/C=C/C(=O)c2cc3c(cc2OCC(=O)O)OCS3)cc(OC)c1OC            f
 4  COc1cc2c(cc1C(=O)/C=C/c1cc(Br)c(OC)c(OC)c1)SCO2            f
 5  COc1cc2c(cc1C(=O)/C=C/c1ccc(OCC(=O)O)cc1)SCO2            f
 6      O=C(/C=C/c1ccccc1Cl)c1c(O)ccc2c1SCO2            f
 7  COc1ccc(/C=C/C(=O)c2c(O)ccc3c2SCO3)cc1OC            f
 8  O=C(/C=C/c1ccc(Cl)cc1Cl)c1cc2c(cc1OCCN1CCOCC1)OCS2            f
 9   COc1ccc(/C=C/C(=O)c2cc3c(cc2OC)OCS3)cc1            t
10  CN(C)CCOc1ccc(/C=C/C(=O)c2c(O)ccc3c2SCO3)cc1            f
